These data points were gathered from ChEMBL document CHEMBL1671806.

# Tested on: Plasmodium falciparum
# test_details: Antimicrobial activity against Plasmodium falciparum TM91C235 by microdilution method
# Assay type: functional, organism-based
# settings: Plasmodium falciparum, TM91C235; read-out: IC50
Answer each item with its documented IC50.

Recorded IC50 (compound C=CCON/C(=N\C1=NC(=O)C(=O)N1C(C)C)Nc1ccc(Cl)c(Cl)c1 ): > 15 µg/mL

Lookup result for CCCCCCN/C(=N\C1=NC(=O)C(=O)N1C(C)C)Nc1ccc(Cl)c(Cl)c1 ; measured IC50: 2.8 µg/mL

Recorded IC50 (compound CC(C)N1C(=O)C(=O)N=C1/N=C(\NOCc1ccccc1)Nc1ccc(Cl)c(Cl)c1 ): > 5 µg/mL

Looking up CC(C)N1C(=O)C(=O)N=C1/N=C(\NCCN(C)C)Nc1ccc(Cl)c(Cl)c1 , I see its IC50 listed as > 5 µg/mL

The reported IC50 of the compound CC(C)N1C(=O)C(=O)N=C1/N=C(\NCc1ccccc1)Nc1ccc(Cl)c(Cl)c1 was > 5 µg/mL

====

# System: Plasmodium falciparum
# test_details: Antimicrobial activity against Plasmodium falciparum TM91C235 by microdilution method
# Format: functional, organism-based
# settings: Plasmodium falciparum, TM91C235; read-out: IC50
Please go through the items and note down their IC50.
Numbers only; they are read as µg/mL.

# IC50 of CC(C)N1C(=O)C(=O)N=C1/N=C(\NCC(C)(C)C)Nc1ccc(Cl)c(Cl)c1 = 0.95

Reported IC50 for CC(C)N1C(=O)C(=O)N=C1/N=C(\NOC(C)(C)C)Nc1ccc(Cl)c(Cl)c1 was 3.36

====

# Tested on: Plasmodium falciparum
# test_details: Antimicrobial activity against Plasmodium falciparum W2 by microdilution method
# Format: functional, organism-based
# settings: Plasmodium falciparum, W2; read-out: IC50
Please go through the items and note down their log10 of IC50.
A value of 2 here means IC50 of 100 in µg/mL, since values are log10.

For this compound ( CCCCCCN/C(=N\C1=NC(=O)C(=O)N1C(C)C)Nc1ccc(Cl)c(Cl)c1 ), measured log10 of IC50 is 0.42

Memo: CC(C)N1C(=O)C(=O)N=C1/N=C(\NCC(C)(C)C)Nc1ccc(Cl)c(Cl)c1 , reported log10 of IC50: -0.43

Recorded result, CC(C)N1C(=O)C(=O)N=C1/N=C(/Nc1ccc(Cl)c(Cl)c1)NC1C2CC3CC(C2)CC1C3 (stereo not given) , log10 of IC50: 0.43

Documented log10 of IC50 of CC(C)N1C(=O)C(=O)N=C1/N=C(\NCCCCN1CCCC1)Nc1ccc(Cl)c(Cl)c1 : 0.36

C=CCON/C(=N\C1=NC(=O)C(=O)N1C(C)C)Nc1ccc(Cl)c(Cl)c1 yielded log10 of IC50 of 0.83

For CC(C)N1C(=O)C(=O)N=C1/N=C(\NCc1ccccc1)Nc1ccc(Cl)c(Cl)c1 the compound record lists log10 of IC50 as 0.11

Form field log10 of IC50, entry CC(C)N1C(=O)C(=O)N=C1/N=C(\NCCN1CCCC1)Nc1ccc(Cl)c(Cl)c1 : 0.12

Entry CCN/C(=N\C1=NC(=O)C(=O)N1C(C)C)Nc1ccc(Cl)c(Cl)c1 ; log10 of IC50 = 0.22

Measured log10 of IC50 of CC(C)N1C(=O)C(=O)N=C1/N=C(\Nc1ccccc1)Nc1ccc(Cl)c(Cl)c1 : -0.06

CC(C)N1C(=O)C(=O)N=C1/N=C(\NOC(C)(C)C)Nc1ccc(Cl)c(Cl)c1 yielded log10 of IC50 of 0.06

Measured log10 of IC50, CC(C)N1C(=O)C(=O)N=C1/N=C(\NCCCCCCNC(=O)OC(C)(C)C)Nc1ccc(Cl)c(Cl)c1 : 0.16

Value of measured log10 of IC50 for the entry CC(C)N1C(=O)C(=O)N=C1/N=C(/Nc1ccc(Cl)c(Cl)c1)NC(C)(C)C : 0.06

====

What IC50 was measured for each of the following?
# Tested on: Plasmodium falciparum
# test_details: Antimicrobial activity against Plasmodium falciparum W2 by microdilution method
# Type: functional, organism-based
Please state the figure in µg/mL; there is no need to write the unit.

// IC50 lookup, compound = CC(C)N1C(=O)C(=O)N=C1/N=C(/Nc1ccc(Cl)c(Cl)c1)NC(C)(C)C , result: 1.15

Notebook: CC(C)N1C(=O)C(=O)N=C1/N=C(\NCCCCN1CCCC1)Nc1ccc(Cl)c(Cl)c1 , IC50 read as 2.3

Lab note: measured IC50 of CC(C)N1C(=O)C(=O)N=C1/N=C(\NCC(C)(C)C)Nc1ccc(Cl)c(Cl)c1 was 0.37

Data point: CC(C)N1C(=O)C(=O)N=C1/N=C(\Nc1ccccc1)Nc1ccc(Cl)c(Cl)c1 ; IC50 = 0.88

Briefly, IC50 measured for CC(C)N1C(=O)C(=O)N=C1/N=C(\NCc1ccccc1)Nc1ccc(Cl)c(Cl)c1 : 1.3

The reported value for CC(C)N1C(=O)C(=O)N=C1/N=C(\NCCN1CCCC1)Nc1ccc(Cl)c(Cl)c1 in terms of IC50 is 1.32

The compound CC(C)N1C(=O)C(=O)N=C1/N=C(\NCCCCCCNC(=O)OC(C)(C)C)Nc1ccc(Cl)c(Cl)c1 showed IC50 equal to 1.46

====

# Test system: Plasmodium falciparum
# test_details: Antimicrobial activity against Plasmodium falciparum D6 by microdilution method
# Format: functional, organism-based
# settings: Plasmodium falciparum, D6; read-out: IC50
Can you tell me IC50 for the items I'm about to list?
Lab book: enter the figure in µg/mL, no units written.

Noted for CC(C)N1C(=O)C(=O)N=C1/N=C(\NOC(C)(C)C)Nc1ccc(Cl)c(Cl)c1 : its IC50 reads 2.75

Looking up CC(C)N1C(=O)C(=O)N=C1/N=C(/Nc1ccc(Cl)c(Cl)c1)NC1C2CC3CC(C2)CC1C3 (stereo not given) , I see its IC50 listed as 0.81

Notebook: CC(C)N1C(=O)C(=O)N=C1/N=C(\NCC(C)(C)C)Nc1ccc(Cl)c(Cl)c1 , IC50 read as 1.1

Entry CCCCCCN/C(=N\C1=NC(=O)C(=O)N1C(C)C)Nc1ccc(Cl)c(Cl)c1 ; IC50 = 1.35

Value of measured IC50 for the entry CC(C)N1C(=O)C(=O)N=C1/N=C(\NCCCCN1CCCC1)Nc1ccc(Cl)c(Cl)c1 : 1.55

====

# Tested on: Plasmodium falciparum
# test_details: Antimicrobial activity against Plasmodium falciparum D6 by microdilution method
# Format: functional, organism-based
# settings: Plasmodium falciparum, D6; read-out: IC50
Please go through the items and note down their IC50.
Form entry: value (µg/mL) — number only.

Recorded IC50 (molecule C=CCON/C(=N\C1=NC(=O)C(=O)N1C(C)C)Nc1ccc(Cl)c(Cl)c1 ): 8.5

Form field IC50, entry CC(C)N1C(=O)C(=O)N=C1/N=C(\Nc1ccccc1)Nc1ccc(Cl)c(Cl)c1 : 2.16

Record summary for CC(C)N1C(=O)C(=O)N=C1/N=C(\NCc1ccccc1)Nc1ccc(Cl)c(Cl)c1 : reported IC50 = 2.36

IC50 measured on CC(C)N1C(=O)C(=O)N=C1/N=C(/Nc1ccc(Cl)c(Cl)c1)NC(C)(C)C = 0.72

====

# test_details: Toxicity in Plasmodium berghei sporozoites infected orally dosed mouse administered for three consecutive days one day before infection
# Type: organism-based
# settings: in vivo, po
Exercise: state measured MTD at 3 days for each of the compounds provided.

Kindly note the recorded MTD at 3 days for CC(C)N/C(=N\C1=NC(=O)C(=O)N1C(C)C)Nc1ccc(Cl)c(Cl)c1 , which is ≥ 160 mg/kg/day

// field: MTD at 3 days; key: CC(C)N1C(=O)C(=O)N=C1/N=C(\NCc1ccccc1)Nc1ccc(Cl)c(Cl)c1 ; value = ≥ 320 mg/kg/day

Kindly note the recorded MTD at 3 days for CC(C)N1C(=O)C(=O)N=C1/N=C(\NOCc1ccccc1)Nc1ccc(Cl)c(Cl)c1 , which is ≥ 160 mg/kg/day

Looking up CC(C)N1C(=O)C(=O)N=C1/N=C(/Nc1ccc(Cl)c(Cl)c1)NC1C2CC3CC(C2)CC1C3 (stereo not given) , I see its MTD at 3 days listed as ≥ 320 mg/kg/day

Entry CN/C(=N\C1=NC(=O)C(=O)N1C(C)C)Nc1ccc(Cl)c(Cl)c1 — recorded MTD at 3 days = ≥ 320 mg/kg/day

What the record says about C=CCON/C(=N\C1=NC(=O)C(=O)N1C(C)C)Nc1ccc(Cl)c(Cl)c1 : MTD at 3 days is 120 mg/kg/day

Entry CC(C)N1C(=O)C(=O)N=C1/N=C(\NCCN(C)C)Nc1ccc(Cl)c(Cl)c1 , MTD at 3 days reported as ≥ 160 mg/kg/day

// sample CC(C)N1C(=O)C(=O)N=C1/N=C(\NCCCN(C)C)Nc1ccc(Cl)c(Cl)c1 , its MTD at 3 days was ≥ 160 mg/kg/day

Given item CCCCCCN/C(=N\C1=NC(=O)C(=O)N1C(C)C)Nc1ccc(Cl)c(Cl)c1 , the value recorded as its MTD at 3 days is ≥ 160 mg/kg/day

response.value for CON/C(=N\C1=NC(=O)C(=O)N1C(C)C)Nc1ccc(Cl)c(Cl)c1 (field: MTD at 3 days) = < 40 mg/kg/day

Data point: CCON/C(=N\C1=NC(=O)C(=O)N1C(C)C)Nc1ccc(Cl)c(Cl)c1 ; MTD at 3 days = < 40 mg/kg/day

Reported MTD at 3 days ( CCN/C(=N\C1=NC(=O)C(=O)N1C(C)C)Nc1ccc(Cl)c(Cl)c1 ) = ≥ 160 mg/kg/day

// sample CC(C)N1C(=O)C(=O)N=C1/N=C(\NCCCCN1CCCC1)Nc1ccc(Cl)c(Cl)c1 , its MTD at 3 days was ≥ 160 mg/kg/day

Lookup result for CC(C)N1C(=O)C(=O)N=C1/N=C(/Nc1ccc(Cl)c(Cl)c1)NC(C)(C)C ; measured MTD at 3 days: ≥ 320 mg/kg/day

Measured MTD at 3 days of CC(C)N1C(=O)C(=O)N=C1/N=C(\NOC(C)(C)C)Nc1ccc(Cl)c(Cl)c1 : ≥ 160 mg/kg/day

Form: compound = CC(C)N1C(=O)C(=O)N=C1/N=C(\Nc1ccccc1)Nc1ccc(Cl)c(Cl)c1 ; MTD at 3 days = ≥ 160 mg/kg/day

Item: CC(C)N1C(=O)C(=O)N=C1/N=C(\NCCN1CCCC1)Nc1ccc(Cl)c(Cl)c1 | MTD at 3 days: ≥ 160 mg/kg/day

// recorded MTD at 3 days for CC(C)N1C(=O)C(=O)N=C1/N=C(\NCCCCCCNC(=O)OC(C)(C)C)Nc1ccc(Cl)c(Cl)c1 : ≥ 160 mg/kg/day

Sure, the documented MTD at 3 days for CCN(CC)CCN/C(=N\C1=NC(=O)C(=O)N1C(C)C)Nc1ccc(Cl)c(Cl)c1 is ≥ 160 mg/kg/day

CC(C)N1C(=O)C(=O)N=C1/N=C(\NCC(C)(C)C)Nc1ccc(Cl)c(Cl)c1 yielded MTD at 3 days of ≥ 320 mg/kg/day
